# experimental.system: UniProt:P35869
# assay.summary: In Vitro Assay 1: XRE-luciferase reporter assay, antagonism in human cell line (HepG2)
# run.conditions: Assay 1: AhR-Luc Human Antagonism (IC50, nM), unmarked values: kynurenine 200 μM, 6 hours
quantity.measured: IC50

                                   molecule  measured_value
0  OC[C@H]1CN(c2cc(-c3ccc(C(F)(F)F)cc3)nc(-c3cccnc3)n2)C[C@H]1O [Example 256]         < 10 nM
1  CC(=O)N[C@H]1CN(c2cc(-c3ccc(Cl)cc3)nc(-c3cccnc3)n2)C[C@@H]1O [Example 245]    10 to 100 nM

Would you kindly look at the next entry?
Can you share its IC50? I mean this molecule: Cc1ccncc1-c1nc(-c2ccc(C(F)(F)F)cc2)cc(N2CC[C@H](O)C2)n1 [Example 263]
< 10 nM

* * *

# experimental.system: AhR (Homo sapiens, UniProt P35869)
# Sequence (P35869 11-848): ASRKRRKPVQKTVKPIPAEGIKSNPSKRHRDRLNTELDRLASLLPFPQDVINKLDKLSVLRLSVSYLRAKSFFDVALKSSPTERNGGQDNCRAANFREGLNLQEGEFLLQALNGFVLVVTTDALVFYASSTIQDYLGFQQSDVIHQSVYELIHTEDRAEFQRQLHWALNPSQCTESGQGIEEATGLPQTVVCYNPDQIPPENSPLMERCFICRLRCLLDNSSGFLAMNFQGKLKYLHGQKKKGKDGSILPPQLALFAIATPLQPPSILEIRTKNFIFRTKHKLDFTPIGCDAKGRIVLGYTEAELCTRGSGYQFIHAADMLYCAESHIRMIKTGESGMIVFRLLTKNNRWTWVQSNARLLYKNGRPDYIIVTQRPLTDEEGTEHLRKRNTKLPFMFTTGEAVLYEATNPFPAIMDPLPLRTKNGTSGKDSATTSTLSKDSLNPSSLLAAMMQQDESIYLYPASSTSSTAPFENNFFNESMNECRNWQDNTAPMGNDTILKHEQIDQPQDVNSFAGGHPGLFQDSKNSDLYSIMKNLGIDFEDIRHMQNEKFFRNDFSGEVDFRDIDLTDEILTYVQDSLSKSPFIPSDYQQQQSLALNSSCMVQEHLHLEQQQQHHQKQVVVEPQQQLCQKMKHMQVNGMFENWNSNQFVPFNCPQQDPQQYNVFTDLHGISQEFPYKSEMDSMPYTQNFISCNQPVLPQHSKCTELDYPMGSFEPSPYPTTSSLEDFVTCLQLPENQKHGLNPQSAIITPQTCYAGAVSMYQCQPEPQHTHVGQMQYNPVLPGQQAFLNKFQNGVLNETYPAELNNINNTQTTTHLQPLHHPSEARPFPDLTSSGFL
# assay.summary: In Vitro Assay 1: XRE-luciferase reporter assay, antagonism in human cell line (HepG2)
# run.conditions: Assay 1: AhR-Luc Human Antagonism (IC50, nM), values marked *: kynurenine 50 μM, 6 hours
Measured IC50 values are reported for all entries that follow.

Observe how each entry below is paired with its result.
>>> df
                                   molecule  measured_value
0  C[C@@H](CO)Nc1cc(-c2ccc(Cl)cc2)nc(-c2cccnc2)n1  100 to 1000 nM
1  O[C@H]1CNC[C@H]1Nc1cc(-c2ccc(Cl)cc2)nc(-c2cccnc2)n1       > 1000 nM
2  CCOC(=O)CC(=O)C1CCN(c2cc(-c3ccc(Cl)cc3)nc(-c3cccnc3)n2)CC1       > 1000 nM
3  Cn1cc(-c2nc(-c3ccc(Cl)cc3)cc(N3CCC(CCCO)CC3)n2)cn1  100 to 1000 nM
4  CCOC(=O)N1CCN(c2cc(-c3ccc(Cl)cc3)nc(-c3cccnc3)n2)CC1         < 10 nM
5  Clc1ccc(-c2cc(NC3CCCC3)nc(-c3cccnc3)n2)cc1       > 1000 nM
6  O=[N+]([O-])c1ccc(N2CCN(c3cc(-c4ccc(Cl)cc4)nc(-c4cccnc4)n3)CC2)cc1       > 1000 nM
7  Fc1ccc(N2CCN(c3cc(-c4ccc(Cl)cc4)nc(-c4cccnc4)n3)CC2)cc1    10 to 100 nM
8  CCC(O)CNc1cc(-c2ccc(Cl)cc2)nc(-c2cccnc2)n1 (stereo not shown)  100 to 1000 nM
9  CN1CCN(c2cc(-c3ccc(Cl)cc3)nc(-c3cccnc3)n2)CC1         < 10 nM

Can you share its IC50? I mean this molecule: "COCCN1CCN(c2cc(-c3ccc(Cl)cc3)nc(-c3cccnc3)n2)CC1"
< 10 nM

Same question, "COc1ccc(N2CCN(c3cc(-c4ccc(Cl)cc4)nc(-c4cccnc4)n3)CC2)cc1" this time
< 10 nM

Same question, "Clc1ccc(-c2cc(NCC3CCOCC3)nc(-c3cccnc3)n2)cc1" this time
100 to 1000 nM

* * *

# experimental.system: AhR (Homo sapiens, UniProt P35869)
# assay.summary: In Vitro Assay 1: XRE-luciferase reporter assay, antagonism in human cell line (HepG2)
# run.conditions: Assay 1: AhR-Luc Human Antagonism (IC50, nM), values marked *: kynurenine 50 μM, 6 hours
Measured IC50 values are reported for all entries that follow.

In [3]: df
Out[3]:
                                   molecule  quantity_measured  measured_value
0  Clc1ccc(-c2cc(NC3CCN(Cc4ccccc4)C3)nc(-c3cccnc3)n2)cc1 (stereo not drawn) [Example 132]               IC50  100 to 1000 nM
1  CCC(CO)Nc1cc(-c2ccc(Cl)cc2)nc(-c2cccnc2)n1 (stereo not drawn) [Example 15]               IC50       > 1000 nM
2  O=C(O)[C@H]1C[C@H](Nc2cc(-c3ccc(Cl)cc3)nc(-c3cccnc3)n2)CN1 [Example 208]               IC50       > 1000 nM
3  CC1CCCN(c2cc(-c3ccc(Cl)cc3)nc(-c3cccnc3)n2)C1 (stereo not drawn) [Example 48]               IC50       > 1000 nM

Can you share its IC50? I mean this molecule: COc1ccc(OC)c(CN2CCN(c3cc(-c4ccc(Cl)cc4)nc(-c4cccnc4)n3)CC2)c1 [Example 81]
< 10 nM

Same question, CN1CCN(C2CCN(c3cc(-c4ccc(Cl)cc4)nc(-c4cccnc4)n3)CC2)CC1 [Example 92] this time
10 to 100 nM
